Reference source for all entries: the supplement of paper PMC11908140

B1: library; numbered along this chain (parent)
chain: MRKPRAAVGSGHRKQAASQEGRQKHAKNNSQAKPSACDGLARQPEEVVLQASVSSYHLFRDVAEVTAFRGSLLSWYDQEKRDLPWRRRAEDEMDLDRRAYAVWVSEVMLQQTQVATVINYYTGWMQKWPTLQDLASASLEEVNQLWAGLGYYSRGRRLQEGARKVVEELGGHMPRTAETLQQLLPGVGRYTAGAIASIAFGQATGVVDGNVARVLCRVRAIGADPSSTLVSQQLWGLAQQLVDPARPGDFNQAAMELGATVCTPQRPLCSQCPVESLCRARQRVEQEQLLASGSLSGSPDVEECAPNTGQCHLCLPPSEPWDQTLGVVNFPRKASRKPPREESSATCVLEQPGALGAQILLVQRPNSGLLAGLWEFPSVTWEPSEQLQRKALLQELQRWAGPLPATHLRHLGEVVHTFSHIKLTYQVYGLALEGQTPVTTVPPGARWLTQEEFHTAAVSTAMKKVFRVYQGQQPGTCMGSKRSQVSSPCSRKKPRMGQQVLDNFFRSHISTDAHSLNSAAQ

- Variants of: B1
- assay_notes: 8OG:A repair function score (normalized; synonymous = 0, nonsense = -1) (normalized log-likelihood score); higher = more repair activity (WT-like);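 further: cells sorted at 72 h after reporter transfection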
- test_context: with 8OG:A DNA repair reporter (GFP) in HEK-293 MUTYH KO cells
Recorded 8OG:A repair function score values for a group of variants are listed next.
measurement_kind: 8OG:A repair function score

1) V104W : -0.707
2) A357W : -0.104
3) E140M : -0.00715
4) A456F : -0.61
5) E79R : 0.00654
6) E90P : -0.164
7) A99M : -0.378
8) P267W : -1.06
9) S483L : 0.00323
10) P437Q : -0.0348
11) Q181P : -0.726
12) S487R : 0.0273
13) G170Q : 0.0993
14) Y428H : -0.753
15) G188H : -0.662
16) A135F : -0.316
17) I221W : -0.622
18) K422G : -0.491
19) R97Q : 0.00692
20) M108C : -0.99
21) P129F : -0.742
22) S507R : -0.00355
23) D243P : -0.554
24) A519V : -0.0127
25) G188L : -0.95
26) S487P : -0.0175
27) L145P : -1.26
28) A192P : -1.17
29) T406Y : -0.265
30) N329H : -0.276
31) V500H : 0.0251
32) Q113W : -0.172
33) P306S : -0.0289
34) Q240M : -0.867
35) E168F : -0.102
36) A445Y : -0.693
37) R340T : -0.0938
38) R42H : 0.0289
39) Q473T : -0.00244
40) Q202I : -0.0774
41) E433V : -0.164
42) V104N : -1.04
43) S480L : -0.0111
44) G236V : -0.0226
45) E433M : -0.0329
46) S384C : -0.202
47) G372W : -0.135
